// reported pKi for each item listed
assaySystem: Prothrombin (Bos taurus, UniProt P00735)
In plain terms, pKi is the concentration in mol/L turned into minus its base-10 logarithm.

Some solved entries appear below for comparison.
INSERT INTO results (cpdsmiles, assaysystem, measvalue) VALUES
  ('CC(C)(C)OC(=O)N[C@@H]1Cc2ccc(cc2)NC(=O)CCN2CCN(CCC(=O)Nc3ccc(cc3)C[C@@H](C(=O)NCc3ccc(CN)cc3)NC1=O)CC2', 'Prothrombin (Bos taurus, UniProt P00735)', 4.81),
  ('NCc1ccc(CNC(=O)[C@@H]2Cc3ccc(cc3)NC(=O)CCN3CCN(CCC(=O)Nc4ccc(cc4)C[C@@H](NS(=O)(=O)c4ccccc4)C(=O)N2)CC3)cc1.O=C(O)C(F)(F)F.O=C(O)C(F)(F)F.O=C(O)C(F)(F)F', 'Prothrombin (Bos taurus, UniProt P00735)', 4.43),
  ('N=C(N)c1ccc(CNC(=O)[C@@H]2Cc3ccc(cc3)NC(=O)CN3CCN(CC3)CC(=O)Nc3ccc(cc3)C[C@@H](NC(=O)Cc3ccccc3)C(=O)N2)cc1', 'Prothrombin (Bos taurus, UniProt P00735)', 4.14),
  ('N=C(N)c1ccc(CNC(=O)[C@@H]2Cc3ccc(cc3)NC(=O)CCN3CCN(CCC(=O)Nc4ccc(cc4)C[C@@H](NC(=O)CCc4ccccc4)C(=O)N2)CC3)cc1', 'Prothrombin (Bos taurus, UniProt P00735)', 6.70);

Print Prothrombin (Bos taurus, UniProt P00735) pKi for CCCCS(=O)(=O)N[C@@H]1Cc2ccc(cc2)NC(=O)CCN2CCN(CCC(=O)Nc3ccc(cc3)C[C@@H](C(=O)NCc3ccc(C(=N)N)cc3)NC1=O)CC2 .
4.85
